Where do these numbers come from? They come from patent US10501479B2.

This listing pairs compounds with measured EC50.
Molecular target: recombinant human ghrelin receptor (HEK293/GRLN) (Homo sapiens, UniProt Q92847)
Construct: expressed in transfected cells
Sequence (Q92847 whole entry): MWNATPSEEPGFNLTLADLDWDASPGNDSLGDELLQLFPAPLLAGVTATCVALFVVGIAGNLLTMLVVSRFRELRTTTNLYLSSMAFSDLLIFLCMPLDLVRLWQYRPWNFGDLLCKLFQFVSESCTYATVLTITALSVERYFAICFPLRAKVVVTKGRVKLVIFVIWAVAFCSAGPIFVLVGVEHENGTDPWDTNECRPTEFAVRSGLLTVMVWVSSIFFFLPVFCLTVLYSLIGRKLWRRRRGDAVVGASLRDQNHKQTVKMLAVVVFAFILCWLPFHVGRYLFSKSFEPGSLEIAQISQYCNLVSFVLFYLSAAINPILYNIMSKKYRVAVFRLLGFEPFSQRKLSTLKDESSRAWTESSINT
Test: Ghrelin inverse agonist potency (EC50) with IP-1 (IP-One HTRF) assay
Type: cell-based
Conditions: inverse agonist potency, IP-1 assay; read-out: EC50 (Activity)
Protocol: Evaluation of Ghrelin Inverse Agonist Potency (EC50) with IP-1 Assay: HEK293 cells stably expressing recombinant human ghrelin receptor (HEK293/GRLN) were used in the IP-One HTRF assay. […] After additional incubation at room temperature for 1 hour, the plates were read on Envision with 620 and 665 (Perkin Elmer).

compound | EC50 [nM]
CCN1Cc2ccc(C(C)S(=O)(=O)c3ccc(NC(=O)NC(C)c4ccccc4)cc3)cc2C1 (centres unmarked) | 15.4
CC(c1ccccc1)N(C)C(=O)Nc1ccc(S(=O)(=O)Cc2ccc3c(c2)CNC3)cc1 (centres unmarked) | 252
CC(NC(=O)Nc1ccc(S(=O)(=O)C(C)c2ccc3c(c2)CN(Cc2ccccc2)C3)cc1)c1ccccc1 (centres unmarked) | 170
CC(NC(=O)Nc1ccc(S(=O)(=O)Cc2ccc3c(c2)CN(Cc2ccccc2)C3)cc1)c1ccccc1 (centres unmarked) | 163
C[C@H](NC(=O)Nc1ccc(S(=O)(=O)Nc2ccc(CC(C)(C)N(C)C)cc2)cc1)c1cccc(Cl)c1Cl | 4.7
C[C@H](NC(=O)Nc1ccc(S(=O)(=O)Cc2ccc3c(c2)COC3)cc1)c1cccc(Cl)c1Cl | 649
CC(NC(=O)Nc1ccc(S(=O)(=O)Nc2ccc(CO)cc2)cc1)c1ccccc1 (centres unmarked) | 562
Cl.O=C(NCc1cccc(Cl)c1Cl)Nc1ccc(S(=O)(=O)Cc2ccc3c(c2)CNC3)cc1 | 6.9
